# System: 3D7
# PROCEDURE DETAILS: qHTS profiling for inhibitors of Plasmodium falciparum proliferation (AID 504749); further: nearly all actives have a fitted effect of over 60% in size; further: potency means the concentration at half of the fitted maximal effect
# SETUP CONDITIONS: P. falciparum in erythrocytes, SYBR Green DNA, 72 h; series mostly up to 28.7 µM
Inconclusive results are not listed. Activity calls are given as the source filed them. The call rests on the fitted dose curve; in most records, active means well fitted inhibition curve with a large enough effect; inconclusive means small, poorly fitted or top-dose-only effect; inactive means flat fitted curve, though single readings scatter.
ASSAY READOUT: Potency

## Task I'd like to know its Potency. The compound in question is C/C=C1\C2C=C(C)CC1(N)c1ccc(=O)[nH]c1C2 (centres undefined)
## Result inactive

## Task Requested read-out: Potency. Entry: "COC(=O)[C@@H]1[C@@H]2C[C@H]3c4[nH]c5ccccc5c4CCN3C[C@@H]2CC[C@@H]1O"
## Result inactive

## Task Using the record for CCCCC(=O)N(Cc1ccc(-c2ccccc2-c2nn[nH]n2)cc1)C(C(=O)O)C(C)C (centres undefined) , report its Potency.
## Result inactive

## Task Please report the recorded Potency for O=C(CC1NCCC[C@H]1O)Cn1cnc2cc(Br)c(Cl)cc2c1=O (some centres undefined) .
## Result 1000 nM (active)

---

# PROCEDURE DETAILS: KB-3-1 Cancer Cell Toxicity qHTS against the NCATS CANVASS Library (AID 1347366); further: nearly all actives have a fitted effect of over 75% in size
# SETUP CONDITIONS: KB-3-1 viability, CellTiter-Glo luminescence, 72 h; series mostly up to 46.1 µM
Results filed as inconclusive are left out. Active and inactive are the calls of the source. Calls follow the shape of the dose curve; as a rule, active = well fitted cell-killing curve with a large enough effect; inconclusive = small, poorly fitted or top-dose-only effect; inactive = flat fitted curve, though single readings scatter.
Your reply should match one of these outcome classes. active, inactive

# example entries with known answers
## Task Could you check what this test reported for CC1C(=O)C23CCC1C[C@]21O[C@@H]2C(C)(C)C=CC(=O)[C@@]23COC1=O (some centres not stated) ?
## Result inactive

## Task What classification did "CO[C@H]1/C=C/CC[C@@H](S[C@@H]2O[C@H](CO)[C@@H](O)[C@H](O)[C@H]2O)CC(=O)O[C@@H](/C(C)=C/[C@H](C)C(=O)CCCC2CC(=O)NC(=O)C2)[C@@H](C)[C@@H]1O" end up with in this test?
## Result active

## Task Please share the test call associated with "O=Cc1ccc2n1C[C@@]1(C[C@H](O)[C@H](O)CO1)OC2" .
## Result inactive

## Task Outcome logged for "CC1(C)CC[C@]2(C(=O)O)CC[C@]3(C)C(=CC[C@@H]4[C@@]5(C)C[C@@H](O)[C@H](O)C(C)(C)[C@@H]5CC[C@]43C)[C@@H]2C1" in this assay:
## Result inactive

## Task Look up the recorded call for C/C=C/C=C/C1(O)C2C=C3C(=O)CC45C(=O)C(O)=C(C)C(=O)C4C1C1(C(=O)C(O)=C(C)C(=O)C351)C2C (configuration not stated) in this test.
## Result inactive

---
## Task # fetch the recorded call for "COc1cc(/C=C/C(=O)O)ccc1O" here
## Result inactive

## Task // return assay outcome for "C=C(C)[C@@H]1CC[C@]2(C)CC[C@]3(C)[C@H](CC[C@@H]4[C@@]5(C)CC[C@H](O)C(C)(C)[C@@H]5CC[C@]43C)[C@@H]12"
## Result inactive

---

# Test system: Zika virus NS2B-NS3 protease (unlinked complex)
# PROCEDURE DETAILS: Primary screen GU Rhodamine qHTS for Zika virus inhibitors: Unlinked NS2B-NS3 protease assay (AID 1347159); further: nearly all actives have a fitted effect of over 60% in size
# SETUP CONDITIONS: Recombinant ZIKV NS2B-NS3 protease, Rhodamine110 substrate fluorescence; series mostly up to 107 µM
Records with an inconclusive call do not appear. Activity calls are given as the source filed them. Calls come from the whole dose curve; as a rule, active = well fitted inhibition curve with a large enough effect; inconclusive = small, poorly fitted or top-dose-only effect; inactive = no such curve, though single readings can be large or run the other way.
Reply using exactly one outcome from active, inactive

Take a look at these entries with their results.
## Task # lookup: test call for "CNC(=O)c1cccc2cc(Oc3ccnc4cc(OCC5(N)CC5)c(OC)cc34)ccc12"
## Result inactive

## Task Assay result, entry "CC(C)N(CCCNC(=O)Nc1ccc(C(C)(C)C)cc1)C[C@H]1O[C@@H](n2cc(Br)c3c(N)ncnc32)[C@H](O)[C@@H]1O" — outcome?
## Result inactive

## Task # outcome recorded in this test, key = "CCOc1cc(CNC2CCCC2)cc(Cl)c1OCc1ccc(Cl)cc1"
## Result inactive

## Task Given "CCCc1c(C(C)C)nc(C(C)C)c([C@@H](C)O)c1-c1ccc(F)cc1O" , state the outcome it received in this test.
## Result active

Further cases:
## Task Which outcome did this test record for the compound "Cc1c(C(=O)NCCCO)cnn1-c1nc(-c2cccc(C(F)(F)F)c2)cs1" ?
## Result inactive

## Task Given "Fc1ccccc1CNCc1ccc(-c2ccnc3[nH]ccc23)cc1" , state the outcome it received in this test.
## Result inactive

Hey, just so you know, these numbers are from PubChem BioAssay (NCATS).
